target: Vasopressin V1a receptor (Homo sapiens); test: Displacement of [125I]OH-Phpa-LVA from human V1A receptor expressed in CHO cells after 4 hrs by gamma counter analysis; type: cell-based
Sequence (P37288 whole entry): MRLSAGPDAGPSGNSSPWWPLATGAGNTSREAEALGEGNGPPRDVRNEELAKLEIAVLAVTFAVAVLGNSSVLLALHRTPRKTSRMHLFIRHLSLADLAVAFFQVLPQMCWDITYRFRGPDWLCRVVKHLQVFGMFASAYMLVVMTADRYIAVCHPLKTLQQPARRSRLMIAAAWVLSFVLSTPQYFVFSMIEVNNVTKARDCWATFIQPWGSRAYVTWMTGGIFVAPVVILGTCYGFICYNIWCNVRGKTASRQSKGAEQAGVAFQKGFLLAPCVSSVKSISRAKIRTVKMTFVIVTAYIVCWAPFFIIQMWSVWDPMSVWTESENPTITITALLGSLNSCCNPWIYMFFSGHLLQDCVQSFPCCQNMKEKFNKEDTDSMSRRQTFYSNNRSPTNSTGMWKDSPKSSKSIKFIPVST
pKi: −log10 of the molar value.
MEASURED ENDPOINT: pKi

[
  {
    "SMILES STRING": "COc1ccc(C[C@@H](NC(=O)CCc2ccc(O)cc2)C(=O)N[C@@H](Cc2ccccc2)C(=O)N[C@@H](CCC(N)=O)C(=O)N[C@@H](CC(N)=O)C(=O)N[C@@H](CCCNC(=N)N)C(=O)N2C[Se]C[C@H]2C(=O)N[C@@H](CCCNC(=N)N)C(N)=O)cc1",
    "VALUE OBSERVED": 9.05
  },
  {
    "SMILES STRING": "N=C(N)NCCC[C@H](NC(=O)[C@@H]1CCCN1C(=O)[C@@H]1C[Se]C[C@H](N)C(=O)N[C@@H](Cc2ccc(O)cc2)C(=O)N[C@@H](Cc2ccccc2)C(=O)N[C@@H](CCC(N)=O)C(=O)N[C@@H](CC(N)=O)C(=O)N1)C(=O)NCC(N)=O",
    "VALUE OBSERVED": 5.89
  },
  {
    "SMILES STRING": "COc1ccc(C[C@@H](NC(=O)CCc2ccc(O)cc2)C(=O)N[C@@H](Cc2ccccc2)C(=O)N[C@@H](CCC(N)=O)C(=O)N[C@@H](CC(N)=O)C(=O)N[C@@H](CCCNC(=N)N)C(=O)N2CCC[C@H]2C(=O)N[C@@H](CCCNC(=N)N)C(N)=O)cc1",
    "VALUE OBSERVED": 9.10
  }
]

I: CCOc1ccc2c(c1)[C@]1(CC[C@H](OCCN3CCOCC3)CC1)C(=O)N2S(=O)(=O)c1ccc(C(=O)NC(C)(C)C)cc1OC
II: COc1ccc(C[C@@H](NC(=O)C[Se]c2ccc(O)cc2)C(=O)N[C@@H](Cc2ccccc2)C(=O)N[C@@H](CCC(N)=O)C(=O)N[C@@H](CC(N)=O)C(=O)N[C@@H](CCCNC(=N)N)C(=O)N2CCC[C@H]2C(=O)N[C@@H](CCCNC(=N)N)C(N)=O)cc1
Hi, I'm comparing two records. Which one has the lower pKi, I or II ? To answer, give the label that identifies your chosen option.
I
(I: 6.52, II: 9.05)
